Origin of values: patent US20110038892A1

system: S3S25
Item-by-item account of Tm
parameter: Tm (°C)

binder: VAMP5 (protein) VAMP5: AGKELKQCQQQADEVTEIMLNNFDKVLERHGKLAELEQRSDQLLDMSSAFSKTTKTLAQQKRWENIRCR
measurement-units: °C
test-value: 42
//
binder: VAMP4 (protein) VAMP4: PPKFKRHLNDDDVTGSVKSERRNLLEDDSDEEEDFFLRGPSGPRFGPRNDKIKHVQNQVDEVIDVMQENITKVIERGERLDELQDKSESLSDNATAFSNRSKQLRRQMWWRGCK
measurement-units: °C
test-value: 53
//
binder: VAMP8 (protein) VAMP8: EEASGSAGNDRVRNLQSEVEGVKNIMTQNVERILSRGENLDHLRNKTEDLEATSEHFKTTSQKVARKFWWKNVK
measurement-units: °C
test-value: 48
//
binder: VAMP7 (protein) VAMP7: AILFAVVARGTTILAKHAWCGGNFLEVTEQILAKIPSENNKLTYSHGNYLFHYICQDRIVYLCITDDDFERSRAFSFLNEVKKRFQTTYGSRAQTALPYAMNSEFSSVLAAQLKHHSENKSLDKVMETQAQVDELKGIMVRNIDLVAQRGERLELLIDKTENLVDSSVTFKTTSRNLARAMCMKNIK
measurement-units: °C
test-value: 45
